biological target: CDK2/Cyclin E1 (Homo sapiens, UniProt P24941); experiment: CDK2/Cyclin E1 Caliper LabChip EZ Reader mobility shift assay; format: biochemical; set-up: purchased Eurofins 14-475; conditions: read-out: Caliper Assay (CDK2/CCNE1): IC50
pIC50: −log10 of the molar value.
assay_metric: pIC50

Example entries begin here.
Reported pIC50 ( COC[C@H]1CCCN(C(=O)[C@H](C)NC(=O)[C@@H]2CN(C(=O)c3cncs3)CC23CN(C(=O)[C@H]2CC2(C)C)C3)C1 ) = 5.00 to 6.00

Consider CNC(=O)[C@@H](NC(=O)[C@H]1CN(C(=O)c2cnc(C)s2)CC12CN(C(=O)[C@H]1CC1(C)C)C2)[C@@H](C)OCC1CCCCC1 [I-156B] . Its measured pIC50 is < 5.00

Lab note: CC1(C)C[C@@H]1C(=O)N1CC2(CN(C(=O)c3cnn(Cc4ccccc4)c3)C[C@H]2C(=O)N2CC[C@@H](OCC3CCCCC3)C2)C1 gave pIC50 of 6.00 to 7.00

Item: C[C@@H](OCC1CCC(F)(F)CC1)[C@H](NC(=O)[C@@H]1CN(C(=O)c2cnn(Cc3ccc(F)cc3)c2)CC12CN(C(=O)[C@H]1CC1(C)C)C2)C(N)=O | pIC50: ≥ 8.00

pIC50 reported for this compound CNC(=O)[C@@H](NC(=O)[C@H]1CN(C(=O)c2cnn(Cc3ccccc3)c2)CC12CN(C(=O)[C@H]1CC1(C)C)C2)[C@@H](C)OCC1CCCC1 [I-110B] : 6.00 to 7.00

For reference, reported pIC50 for C[C@@H](OCc1ccccc1)[C@H](NC(=O)C1CN(C(=O)c2cnn(Cc3ccccc3)c2)CC12CN(C(=O)[C@H]1CC1(C)C)C2)C(=O)N1CC2(CCC2)C1 (stereo partly drawn) stands at 7.00 to 8.00

Form field pIC50, entry C[C@@H](OCC1CCCCC1)[C@H](NC(=O)C1CN(C(=O)c2cncs2)CC12CN(C(=O)[C@H]1CC1(C)C)C2)C(=O)N1CCC[C@@H](CO)C1 (stereo partly drawn) : ≥ 8.00

Field pIC50 (entry C[C@@H](OCC1CCOCC1)[C@H](NC(=O)[C@@H]1CN(C(=O)c2cncs2)CC12CN(C(=O)C(C)(C)C1CC1)C2)C(C)(C)O ) reads 6.00 to 7.00

# pIC50 of CNC(=O)[C@@H](NC(=O)C1CN(C(=O)c2cnn(Cc3ccccc3)c2)CC12CN(C(=O)[C@H]1CC1(C)C)C2)[C@@H](C)OCc1ccccn1 (stereo partly drawn) = 5.00 to 6.00

The compound identified as COC[C@H]1CCCN(C(=O)[C@@H](C)NC(=O)[C@@H]2CN(C(=O)c3cncs3)CC23CN(C(=O)[C@H]2CC2(C)C)C3)C1 registered its pIC50 at 5.00 to 6.00

New cases:
Given item CNC(=O)[C@@H](NC(=O)[C@@H]1CN(C(=O)c2cn[nH]c2)CC12CN(C(=O)CC1CC1)C2)[C@@H](C)OCc1ccccc1 [I-41A] , the value recorded as its pIC50 is < 5.00

The compound listed as CC1(C)C[C@@H]1C(=O)N1CC2(CN(C(=O)c3cnn(Cc4ccccc4)c3)CC2C(=O)NC2CNCCOC2)C1 (stereo partly drawn) shows pIC50 equal to 5.00 to 6.00

* * *

target: CDK2/Cyclin E1 (Homo sapiens); test: CDK2/Cyclin E1 Caliper LabChip EZ Reader mobility shift assay; assay type: biochemical; set-up: purchased Eurofins 14-475; details: read-out: Caliper Assay (CDK2/CCNE1): IC50
pIC50: −log10 of the molar value.
assay_metric: pIC50

Record excerpt, results attached:
Form: compound = CNC(=O)[C@@H](NC(=O)[C@@H]1CN(Cc2cnn(Cc3ccccc3)c2)CC12CN(C(=O)[C@H]1CC1(C)C)C2)[C@@H](C)OCc1ccccc1 [I-16A] ; pIC50 = < 5.00

So, Cc1noc([C@H](C)NC(=O)[C@H]2CN(C(=O)c3cnn(Cc4ccccc4)c3)CC23CN(C(=O)[C@H]2CC2(C)C)C3)n1 [I-158B] ? Its pIC50 was < 5.00

CCOC(=O)[C@@H]1CCCN(C(=O)[C@@H](NC(=O)[C@@H]2CN(C(=O)c3cnn(Cc4ccccc4)c3)CC23CN(C(=O)[C@H]2CC2(C)C)C3)[C@@H](C)OCC2CCCCC2)C1 [I-484] yielded pIC50 of ≥ 8.00

The compound CNC(=O)[C@@H](NC(=O)[C@@H]1CN(C(=O)c2cnn(Cc3ccccc3)c2)CC12CN(C(=O)C(C)(C)C)C2)[C@@H](C)OCc1ccccc1 [I-65A] showed pIC50 equal to 7.00 to 8.00

For COc1cccc(CNC(=O)[C@H]2CN(C(=O)c3cnn(Cc4ccccc4)c3)CC23CN(C(=O)[C@H]2CC2(C)C)C3)n1 [I-126B] the compound record lists pIC50 as < 5.00

Moving on to the next compound.
What the record says about CNC(=O)[C@H](COCc1ccccc1)NC(=O)[C@@H]1CN(C(=O)c2cnn(Cc3ccccc3)c2)CC12CN(C(=O)C(C)(C)C)C2 [I-100A] : pIC50 is 5.00 to 6.00

* * *

biological target: CDK2/Cyclin E1 (Homo sapiens); test: CDK2/Cyclin E1 Caliper LabChip EZ Reader mobility shift assay; type: biochemical; design: purchased Eurofins 14-475; conditions: read-out: Caliper Assay (CDK2/CCNE1): IC50
pIC50: −log10 of the molar value.
assay_metric: pIC50

Measured pIC50, C[C@@H](OCC1CCCCC1)[C@H](NC(=O)[C@@H]1CN(C(=O)c2cnn(Cc3ccccc3)c2)CC12CN(C(=O)[C@H]1CC1(C)C)C2)C(=O)N1CCC[C@H](C(=O)O)C1 [I-483] : ≥ 8.00

Note to self: pIC50 recorded for CC1(C)C[C@@H]1C(=O)N1CC2(CN(C(=O)c3cnn(Cc4ccccc4)c3)C[C@@H]2C(=O)NC2CCCN(C(=O)c3ccccc3)C2)C1 (some centres unmarked) [I-59B] was < 5.00

Recorded pIC50 (compound CNC(=O)[C@@H](NC(=O)[C@@H]1CN(C(=O)c2cnn(Cc3ccccc3)c2)CC12CN(C(=O)[C@H]1CC1(C)C)C2)C1(OCC2CCCCC2)CC1 [I-396] ): ≥ 8.00

So for CNC(=O)[C@@H](NC(=O)[C@H]1CN(C(=O)c2cnn(Cc3ccccc3)c2)CC12CN(C(=O)C(C)(C)C#N)C2)[C@@H](C)OCc1ccccc1 [I-76B] , the logged pIC50 turned out to be < 5.00

// moving on: another record for pIC50
Sure, the documented pIC50 for CNC(=O)[C@@H](NC(=O)[C@H]1CN(C(=O)c2cnn(CC(F)(F)F)c2)CC12CN(C(=O)CC1CC1)C2)[C@@H](C)OCc1ccccc1 [I-43B] is < 5.00

* * *

Collected IC50 values appear next to each entry.
target: CDK2/Cyclin E1 (Homo sapiens); test: CDK2/Cyclin E1 Caliper LabChip EZ Reader mobility shift assay; assay type: biochemical; set-up: purchased Eurofins 14-475; details: read-out: Caliper Assay (CDK2/CCNE1): IC50

Look over these answered cases.
Form field IC50, entry CNC(=O)[C@@H](NC(=O)[C@H]1CN(Cc2cnn(Cc3ccccc3)c2)CC12CN(C(=O)[C@H]1CC1(C)C)C2)[C@@H](C)OCc1ccccc1 [I-16B] : > 10000 nM

The measured IC50 associated with CNC(=O)[C@@H](NC(=O)C1(F)CN(C(=O)c2cnn(Cc3ccccc3)c2)CC12CN(C(=O)[C@H]1CC1(C)C)C2)[C@@H](C)OCc1ccccc1 (stereo partly shown) [I-500] reads 100 to 1000 nM

Lab note: measured IC50 of C[C@@H](OCC1CCCCC1)[C@H](NC(=O)[C@@H]1CN(C(=O)c2cncs2)CC12CN(C(=O)[C@H]1CC1(C)C)C2)C(=O)N1CCNCC1 [I-328] was ≤ 10 nM

# IC50 of CC1(C)C[C@@H]1C(=O)N1CC2(CN(C(=O)c3cnn(Cc4ccccc4)c3)C[C@H]2C(=O)N2CCCC(Cc3ccccc3)C2)C1 (stereo partly shown) [I-91A] = > 10000 nM

molecule CC1(C)C[C@@H]1C(=O)N1CC2(CN(C(=O)c3cncs3)C[C@H]2C(=O)NC(c2cccc(C3CCCCC3)n2)P(C)(C)=O)C1 (stereo partly shown) [I-494] , IC50 observed: 100 to 1000 nM

So, CNC(=O)[C@@H](NC(=O)[C@@H]1CN(C(=O)c2cncs2)CC12CN(C(=O)[C@H]1CC1(C)C)C2)[C@@H](C)OC1CC2CCC1CC2 (stereo partly shown) [I-464] ? Its IC50 was 10 to 100 nM

More entries:
Please fill in: IC50 reported for CNC(=O)[C@@H](NC(=O)[C@@H]1CN(C(=O)c2cncs2)CC12CN(C(=O)[C@H]1CC1(C)C)C2)C1(OCc2ccccc2)CC1 [I-375] = 100 to 1000 nM

According to the records, this molecule CNC(=O)[C@@H](NC(=O)[C@@H]1CN(C(=O)c2cnn(Cc3ccccc3)c2)CC12CN(C(=O)N(C)C(C)C)C2)[C@@H](C)OCC1CCCCC1 [I-274] displays IC50 of 100 to 1000 nM

// IC50 value for CNC(=O)[C@@H](NC(=O)[C@@H]1CN(Cc2cn[nH]c2)CC12CN(C(=O)[C@H]1CC1(C)C)C2)[C@@H](C)OCc1ccccc1 [I-50A] : > 10000 nM

Notebook: CNC(=O)[C@@H](NC(=O)[C@H]1CN(C(=O)c2c[nH]c3ccccc23)CC12CN(C(=O)[C@H]1CC1(C)C)C2)[C@@H](C)OCc1ccccc1 [I-72B] , IC50 read as > 10000 nM

Value of IC50 reported for the molecule CNC(=O)[C@@H](NC(=O)[C@@H]1CN(C(=O)c2scnc2Cl)CC12CN(C(=O)[C@H]1CC1(C)C)C2)[C@@H](C)OCC1CCCCC1 [I-157A] is 10 to 100 nM

get_value(item= CNC(=O)[C@@H](NC(=O)[C@@H]1CN(C(=O)c2cnn(CC3CCOCC3)c2)CC12CN(C(=O)[C@H]1CC1(C)C)C2)[C@@H](C)OCC1CCCCC1 [I-121A] , readout=IC50) returns 10 to 100 nM

Documented IC50 of CC1(C)C[C@@H]1C(=O)N1CC2(CN(C(=O)c3cnn(Cc4ccccc4)c3)C[C@H]2C(=O)N[C@@H]2CCN(c3ccccc3)C2)C1 [I-207] : 1000 to 10000 nM
